test system: Escherichia coli TOP10; assay: shrunken log2 fold change of peptide-encoding DNA abundance (4.5 h post-induction vs induction); higher = less antimicrobial activity (less host growth inhibition); conditions: time post-induction: 4.5 h; library: site-saturation at positions 5, 18, 19, 20;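 note: peptides expressed intracellularly from a pBAD plasmid library in pooled LB shake-flask culture, induced with 0.3% L-arabinose, DNA abundance read by NGS, three biological replicates, DESeq2 with apeglm shrinkage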
Label criterion met when shrunken log2 fold change is at or above 0.09; anything below gets criterion not met.

RRIRGRPPRLPRPRPRPQQTPRP    criterion met
RRIRLRPPRLPRPRPRPMDIPRP    criterion not met
RRIRHRPPRLPRPRPRPYIWPRP    criterion not met
RRIRARPPRLPRPRPRPVLCPRP    criterion met
RRIRFRPPRLPRPRPRPPGCPRP    criterion met
RRIRIRPPRLPRPRPRPAMSPRP    criterion not met
RRIRARPPRLPRPRPRPQMIPRP    criterion met
RRIRRRPPRLPRPRPRPYWDPRP    criterion not met

Decide: shrunken log2 fold change of `RRIRIRPPRLPRPRPRPTLDPRP` >= 0.09?
criterion met

Decide: shrunken log2 fold change of `RRIRSRPPRLPRPRPRPEAWPRP` >= 0.09?
criterion not met

Decide: shrunken log2 fold change of `RRIRTRPPRLPRPRPRPVRQPRP` >= 0.09?
criterion met

Decide: shrunken log2 fold change of `RRIRWRPPRLPRPRPRPMNCPRP` >= 0.09?
criterion not met

Decide: shrunken log2 fold change of `RRIRRRPPRLPRPRPRPVWFPRP` >= 0.09?
criterion not met

Decide: shrunken log2 fold change of `RRIRWRPPRLPRPRPRPVQWPRP` >= 0.09?
criterion met

Decide: shrunken log2 fold change of `RRIRRRPPRLPRPRPRPLGCPRP` >= 0.09?
criterion met

Decide: shrunken log2 fold change of `RRIRIRPPRLPRPRPRPNEVPRP` >= 0.09?
criterion not met
